# Study System: T1, PfAlba6 Y28A (Plasmodium falciparum 3D7, UniProt Q8I617 1-96, Y28A)
# T1 sequence: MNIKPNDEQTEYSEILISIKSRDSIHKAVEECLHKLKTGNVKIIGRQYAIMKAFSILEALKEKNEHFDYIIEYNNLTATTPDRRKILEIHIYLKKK
# Test Name: BLI
Observation Type: Kd

- 28 bp dsDNA (C28) (dsDNA) DNA 1: TGGCGAAAGGGGGTTGTGCTGCAAGGCG DNA 2: CGCCTTGCAGCACAACCCCCTTTCGCCA: 12.1 nM

The reported measurements were obtained from paper PMC10981135.
